# tested on: DRB1*1501 (Homo sapiens, UniProt P01903+P01911)
# Construct: made in house; host or cells: EBV-transformed homozygous human B cell lines, transfected fibroblasts or single-allele 721.221 transfectants
# assay: biochemical
# Assay type: binding
# measurement context: read-out: IC50 nM to purified HLA DRB1*1501
Label key: class 1 means IC50 under 800 nM; class 0 means IC50 of 800 nM or more.

Field: example entries. Status: answers known.
compound | answer label
CC[C@H](C)[C@H](NC(=O)[C@H](CC(N)=O)NC(=O)[C@H](CC(N)=O)NC(=O)[C@H](CCCNC(=N)N)NC(=O)[C@H](Cc1c[nH]c2ccccc12)NC(=O)[C@H](CO)NC(=O)[C@H](CCCCN)NC(=O)[C@@H](NC(=O)[C@@H](NC(=O)[C@H](CC(=O)O)NC(=O)[C@@H](NC(=O)[C@@H](NC(=O)[C@@H](NC(=O)CNC(=O)[C@H](CC(N)=O)NC(=O)[C@@H](N)Cc1ccc(O)cc1)[C@@H](C)CC)[C@@H](C)CC)[C@@H](C)O)[C@@H](C)O)[C@@H](C)CC)C(=O)O [Flu.NA.188] | class 1
CC[C@H](C)[C@H](NC(=O)[C@H](CCCNC(=N)N)NC(=O)[C@@H](NC(=O)[C@H](CO)NC(=O)[C@H](CC(N)=O)NC(=O)[C@H](CC(=O)O)NC(=O)[C@H](CCCCN)NC(=O)[C@H](CO)NC(=O)[C@H](Cc1ccc(O)cc1)NC(=O)[C@@H](NC(=O)[C@H](C)NC(=O)[C@@H](N)Cc1c[nH]c2ccccc12)C(C)C)[C@@H](C)CC)C(=O)NCC(=O)N[C@@H](CO)C(=O)N[C@@H](CCCCN)C(=O)O [Flu.NA.77] | class 1
CC[C@H](C)[C@H](N)C(=O)NCC(=O)N[C@@H](CC(N)=O)C(=O)N[C@@H](CCSC)C(=O)N[C@H](C(=O)N[C@@H](CO)C(=O)N[C@H](C(=O)N[C@@H](Cc1c[nH]c2ccccc12)C(=O)N[C@H](C(=O)N[C@@H](CO)C(=O)N[C@@H](Cc1c[nH]cn1)C(=O)N[C@@H](CO)C(=O)N[C@H](C(=O)N[C@@H](Cc1c[nH]cn1)C(=O)N[C@H](C(=O)NCC(=O)O)[C@@H](C)O)[C@@H](C)CC)C(C)C)[C@@H](C)CC)[C@@H](C)CC [Flu.NA.26] | class 1
CC[C@H](C)[C@H](NC(=O)CNC(=O)[C@@H](NC(=O)[C@@H](NC(=O)[C@H](CO)NC(=O)[C@H](C)NC(=O)[C@H](C)NC(=O)[C@@H](NC(=O)[C@@H](NC(=O)[C@H](CC(C)C)NC(=O)[C@@H]1CCCN1C(=O)[C@@H](N)CC(=O)O)C(C)C)C(C)C)[C@@H](C)CC)[C@@H](C)CC)C(=O)N[C@@H](CC(C)C)C(=O)N[C@@H](Cc1c[nH]cn1)C(=O)N[C@@H](CC(C)C)C(=O)O [Flu.M2.27] | class 0
CC[C@H](C)[C@H](NC(=O)[C@H](CC(C)C)NC(=O)[C@H](Cc1c[nH]c2ccccc12)NC(=O)[C@@H](NC(=O)[C@@H](NC(=O)[C@H](CC(N)=O)NC(=O)[C@H](CCCNC(=N)N)NC(=O)[C@H](Cc1ccccc1)NC(=O)[C@H](Cc1ccccc1)NC(=O)[C@H](CO)NC(=O)[C@H](CO)NC(=O)[C@@H](N)CCCCN)C(C)C)C(C)C)C(=O)N[C@@H](CCCCN)C(=O)N[C@@H](CCCCN)C(=O)N[C@@H](CC(N)=O)C(=O)O [Flu.HA.156] | class 0

Find out if reported IC50 for CC[C@H](C)[C@H](NC(=O)[C@H](CS)NC(=O)[C@@H](NC(=O)[C@H](CCC(N)=O)NC(=O)[C@H](CC(=O)O)NC(=O)[C@H](CO)NC(=O)[C@H](CCCCN)NC(=O)[C@@H](NC(=O)[C@H](CC(C)C)NC(=O)[C@H](CO)NC(=O)[C@@H](N)C(C)C)C(C)C)[C@@H](C)CC)C(=O)NCC(=O)N[C@@H](Cc1ccc(O)cc1)C(=O)N[C@@H](Cc1c[nH]cn1)C(=O)N[C@@H](C)C(=O)O [Flu.HA.11] is less than 800 nM
class 0

Find out if reported IC50 for CC[C@H](C)[C@H](NC(=O)[C@H](CCCCN)NC(=O)[C@H](CC(N)=O)NC(=O)[C@H](C)NC(=O)[C@H](CCCCN)NC(=O)[C@H](CCC(=O)O)NC(=O)[C@H](CC(C)C)NC(=O)[C@H](Cc1ccc(O)cc1)NC(=O)[C@H](Cc1ccc(O)cc1)NC(=O)[C@@H](NC(=O)[C@H](Cc1c[nH]cn1)NC(=O)[C@@H](NC(=O)[C@H](CCC(=O)O)NC(=O)[C@H](CCCNC(=N)N)NC(=O)[C@@H](N)CCCNC(=N)N)C(C)C)[C@@H](C)CC)C(=O)O [Flu.PA.127] is less than 800 nM
class 1

Find out if reported IC50 for CSCC[C@H](NC(=O)[C@H](CO)NC(=O)[C@H](CCCCN)NC(=O)[C@H](C)N)C(=O)N[C@@H](CCC(=O)O)C(=O)N[C@@H](Cc1ccc(O)cc1)C(=O)N[C@@H](CC(=O)O)C(=O)N[C@@H](C)C(=O)N[C@H](C(=O)N[C@@H](C)C(=O)N[C@H](C(=O)N[C@H](C(=O)N[C@@H](Cc1c[nH]cn1)C(=O)N[C@@H](CO)C(=O)N[C@@H](Cc1c[nH]c2ccccc12)C(=O)O)[C@@H](C)O)[C@@H](C)O)C(C)C [Flu.PB1.655] is less than 800 nM
class 0

Find out if reported IC50 for CC[C@H](C)[C@H](NC(=O)[C@H](CO)NC(=O)[C@H](CC(N)=O)NC(=O)[C@@H](N)CCC(N)=O)C(=O)N[C@H](C(=O)N[C@H](C(=O)N[C@@H](CCC(=O)O)C(=O)N[C@@H](CCCNC(=N)N)C(=O)N[C@@H](CCSC)C(=O)N[C@H](C(=O)N[C@@H](CC(C)C)C(=O)N[C@@H](CO)C(=O)N[C@@H](C)C(=O)N[C@@H](Cc1ccccc1)C(=O)N[C@@H](CC(=O)O)C(=O)O)C(C)C)[C@@H](C)CC)[C@@H](C)O [Flu.NP.61] is less than 800 nM
class 0

----------
# tested on: DRB1*0301 (Homo sapiens, UniProt P01903+P01911, A100K/A102G/A103R/A169T/F55Y/I96L/K41T/L162R/M171V/P40S/Q125H/Q178H/Q39Y/R42S/S66N/T106N/T262R/W38E/Y61H)
# Sequence (P01903 26-254, other chains not shown): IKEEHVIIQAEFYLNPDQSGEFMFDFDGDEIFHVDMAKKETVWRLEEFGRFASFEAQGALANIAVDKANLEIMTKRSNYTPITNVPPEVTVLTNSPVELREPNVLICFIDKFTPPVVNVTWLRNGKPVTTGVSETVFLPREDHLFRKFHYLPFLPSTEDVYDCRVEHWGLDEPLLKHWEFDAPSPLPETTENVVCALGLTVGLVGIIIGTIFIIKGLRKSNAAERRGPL
# assay: biochemical
metric name: IC50 (nM)
Give just the numeric value; nM need not be written.

Reference set, count: 2
structure notation | experimental result
CC[C@H](C)[C@H](NC(=O)[C@H](CCC(=O)O)NC(=O)[C@H](CC(=O)O)NC(=O)[C@H](CC(C)C)NC(=O)[C@H](CCC(=O)O)NC(=O)[C@@H](NC(=O)[C@H](Cc1c[nH]c2ccccc12)NC(=O)[C@@H](NC(=O)[C@@H](N)CO)[C@@H](C)CC)[C@@H](C)CC)C(=O)NCC(=O)N[C@@H](CCC(=O)O)C(=O)N[C@@H](CC(=O)O)C(=O)N[C@H](C(=O)N[C@@H](C)C(=O)N1CCC[C@H]1C(=O)O)C(C)C | 59
CSCC[C@H](NC(=O)[C@H](CCCCN)NC(=O)[C@H](CO)NC(=O)[C@@H](N)C(C)C)C(=O)NCC(=O)N[C@H](C(=O)N[C@@H](CC(=O)O)C(=O)N[C@@H](CCC(=O)O)C(=O)N[C@@H](Cc1ccc(O)cc1)C(=O)N[C@@H](CO)C(=O)N[C@@H](CO)C(=O)N[C@H](C(=O)N[C@@H](CCC(=O)O)C(=O)N[C@@H](CCCNC(=N)N)C(=O)N[C@H](C(=O)O)C(C)C)[C@@H](C)O)C(C)C | 1020

Which IC50 value is on record for CC[C@H](C)[C@H](NC(=O)CNC(=O)[C@@H](N)CCCNC(=N)N)C(=O)N[C@@H](CC(C)C)C(=O)N[C@@H](CCC(=O)O)C(=O)N[C@@H](CC(=O)O)C(=O)N[C@@H](CCC(=O)O)C(=O)N[C@@H](CCC(N)=O)C(=O)N[C@@H](CCSC)C(=O)N[C@@H](Cc1ccc(O)cc1)C(=O)N[C@@H](CCC(N)=O)C(=O)N[C@@H](CCCCN)C(=O)N[C@@H](CS)C(=O)N[C@@H](CS)C(=O)N[C@@H](CC(N)=O)C(=O)O ?
43

----------
# tested on: DRB1*0301 (Homo sapiens, UniProt P01903+P01911, A100K/A102G/A103R/A169T/F55Y/I96L/K41T/L162R/M171V/P40S/Q125H/Q178H/Q39Y/R42S/S66N/T106N/T262R/W38E/Y61H)
# assay: biochemical
IC50 by entry:
Give just the numeric value; µM need not be written.

Reference set, count: 3
structure notation | experimental result
CC[C@H](C)[C@H](NC(=O)[C@@H](N)CC(C)C)C(=O)N[C@@H](CC(=O)O)C(=O)N[C@@H](Cc1ccccc1)C(=O)N[C@@H](CC(C)C)C(=O)N[C@@H](CCCCN)C(=O)N[C@@H](CC(=O)O)C(=O)N[C@H](C(=O)N[C@@H](CCSC)C(=O)N[C@@H](CCC(=O)O)C(=O)N[C@@H](CO)C(=O)N[C@@H](CCSC)C(=O)N[C@@H](CC(=O)O)C(=O)N[C@@H](CCCCN)C(=O)N[C@@H](CCC(=O)O)C(=O)O)C(C)C | 0.12
CC[C@H](C)[C@H](NC(=O)[C@H](CCCNC(=N)N)NC(=O)[C@H](CCC(=O)O)NC(=O)[C@@H](N)C(C)C)C(=O)N[C@@H](CC(C)C)C(=O)N[C@@H](CCCCN)C(=O)N[C@@H](CCC(=O)O)C(=O)N[C@@H](CCC(=O)O)C(=O)N[C@@H](CO)C(=O)N[C@@H](CC(=O)O)C(=O)N[C@@H](CCC(=O)O)C(=O)N[C@@H](C)C(=O)N[C@@H](CC(C)C)C(=O)N[C@@H](CCCCN)C(=O)N[C@@H](CCSC)C(=O)O | 1.05
CC[C@H](C)[C@H](NC(=O)[C@H](CC(N)=O)NC(=O)[C@H](Cc1ccc(O)cc1)NC(=O)[C@H](CC(C)C)NC(=O)[C@H](CC(N)=O)NC(=O)[C@@H]1CCCN1C(=O)CNC(=O)CNC(=O)[C@H](CC(=O)O)NC(=O)[C@H](CO)NC(=O)[C@@H](NC(=O)[C@H](CC(C)C)NC(=O)[C@H](CC(C)C)NC(=O)CNC(=O)[C@H](C)N)C(C)C)C(=O)O | 0.107

Now, please, on to the next molecule.
Which IC50 value is on record for CC[C@H](C)[C@H](NC(=O)[C@H](CC(=O)O)NC(=O)[C@H](CCCCN)NC(=O)[C@H](CC(=O)O)NC(=O)[C@H](CCSC)NC(=O)[C@@H](NC(=O)[C@H](C)NC(=O)[C@H](CCC(N)=O)NC(=O)[C@H](CC(=O)O)NC(=O)[C@H](CCSC)NC(=O)[C@H](CCCNC(=N)N)NC(=O)[C@@H](NC(=O)[C@H](CS)NC(=O)[C@H](CC(C)C)NC(=O)[C@@H](N)CO)[C@@H](C)CC)[C@@H](C)CC)C(=O)O ?
0.058
